Exercise: state measured Mean No of serum samples >30% inhibition (30% CCP) with SCP (serum samples) for each of the binders provided.
- tgt: pre-existing anti-drug antibodies (ADA) present in human sera
- test description: pre-existing ADA ELISA, scFv coated, human sera unspiked vs spiked
Give bare numbers.

Solved entries:
binder="PRO2918 (scFv 54-21-H03-sc01_(L12R, V103T, L144Q)) (scFv, VH substitutions, AHo numbering; also called PRO1922-L12R-V103T-L144Q) scFv: DIQMTQSPSSLSASVGDRVTITCQASESIYSSLAWYQQKPGKAPKLLIYLASTLASGVPSRFSGSGSGTDFTLTISSLQPEDFATYYCQSTDYTTSTHRNSFGTGTKVTVLGGGGGSGGGGSGGGGSGGGGSEVQLVESGGGRVQPGGSLRLSCAASGFSFSTTYYMCWVRQAPGKGLEWIGCTNTASSVRTYYATWAKGRFTISRDNSKNTVYLQMNSLRAEDTATYYCARDMGFADYALNLWGQGTQVTVSS" measurement=3
binder="PRO2994 (scFv 54-21-H03-sc01_(P48A)) (scFv, PRO1922 variant; VH substitution, AHo numbering; also called PRO1922 P48A) scFv: DIQMTQSPSSLSASVGDRVTITCQASESIYSSLAWYQQKPGKAPKLLIYLASTLASGVPSRFSGSGSGTDFTLTISSLQPEDFATYYCQSTDYTTSTHRNSFGTGTKVTVLGGGGGSGGGGSGGGGSGGGGSEVQLVESGGGLVQPGGSLRLSCAASGFSFSTTYYMCWVRQAAGKGLEWIGCTNTASSVRTYYATWAKGRFTISRDNSKNTVYLQMNSLRAEDTAVYYCARDMGFADYALNLWGQGTLVTVSS" measurement=2
binder="PRO3341 (scFv 37-20-B03-sc09.1_(T101S, T146S)) (scFv, PRO2230 variant; VH substitutions, AHo numbering; also called PRO2230 T101S-T146S) scFv: DIQMTQSPASLSASVGDRVTITCQASQSIGTYLAWYQQKPGKPPKLLIYRAFILASGVPSRFSGSGSGTDFTLTISSLQPEDFATYYCQSNFYSDSTTIGPNAFGTGTKVTVLGGGGGSGGGGSGGGGSGGGGSEVQLVESGGGLVQPGGSLRLSCAASGFSFNSDYWIYWVRQAPGKGLEWIASIYGGSSGNTQYASWAQGRFTISRDNSKNTVYLQMNSLRAEDSAVYFCARGYVDYGGATDLWGQGTLVSVSS" measurement=0
binder="PRO2931 (scFv 54-21-H03-sc01_(L144K, S148L)) (scFv, PRO1922 variant; VH substitutions, AHo numbering; also called PRO1922 L144K-S148L) scFv: DIQMTQSPSSLSASVGDRVTITCQASESIYSSLAWYQQKPGKAPKLLIYLASTLASGVPSRFSGSGSGTDFTLTISSLQPEDFATYYCQSTDYTTSTHRNSFGTGTKVTVLGGGGGSGGGGSGGGGSGGGGSEVQLVESGGGLVQPGGSLRLSCAASGFSFSTTYYMCWVRQAPGKGLEWIGCTNTASSVRTYYATWAKGRFTISRDNSKNTVYLQMNSLRAEDTAVYYCARDMGFADYALNLWGQGTKVTVLS" measurement=1

Now for the binder whose Mean No of serum samples >30% inhibition (30% CCP) with SCP (serum samples) we want.
Qu. Read off the recorded Mean No of serum samples >30% inhibition (30% CCP) with SCP (serum samples) for PRO3311 (scFv 37-20-B03-sc09.1_(L12A, T101Q, L144A, T146Q)) (scFv, PRO2230 variant; VH substitutions, AHo numbering; also called PRO2230 L12A-T101Q-L144A-T146Q) scFv: DIQMTQSPASLSASVGDRVTITCQASQSIGTYLAWYQQKPGKPPKLLIYRAFILASGVPSRFSGSGSGTDFTLTISSLQPEDFATYYCQSNFYSDSTTIGPNAFGTGTKVTVLGGGGGSGGGGSGGGGSGGGGSEVQLVESGGGAVQPGGSLRLSCAASGFSFNSDYWIYWVRQAPGKGLEWIASIYGGSSGNTQYASWAQGRFTISRDNSKNTVYLQMNSLRAEDQAVYFCARGYVDYGGATDLWGQGTAVQVSS
Ans. 7
